Entry source: patent US20230080534A1

- SYSTEM NAME: T1, SEMG2(497-509) polypeptide QIEKLVEGKSQIQ (human)
- T1 peptide: QIEKLVEGKSQIQ
- METHOD DESCRIPTION: ELISA, immobilized peptide QIEKLVEGKSQIQ
Documented OD450 absorbance across a set of binders
EXPERIMENTAL READOUT: OD450 absorbance

1. MM14 (antibody, IgG2b, V domains shown) VH: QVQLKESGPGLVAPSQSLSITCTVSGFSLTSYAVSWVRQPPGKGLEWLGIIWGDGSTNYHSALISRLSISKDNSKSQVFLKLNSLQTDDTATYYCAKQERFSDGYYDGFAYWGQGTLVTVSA VL: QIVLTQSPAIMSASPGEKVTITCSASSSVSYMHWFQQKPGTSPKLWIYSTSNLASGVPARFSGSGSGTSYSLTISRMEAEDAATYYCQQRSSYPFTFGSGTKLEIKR	1.17
2. MM08 (antibody, IgG1, V domains shown) VH: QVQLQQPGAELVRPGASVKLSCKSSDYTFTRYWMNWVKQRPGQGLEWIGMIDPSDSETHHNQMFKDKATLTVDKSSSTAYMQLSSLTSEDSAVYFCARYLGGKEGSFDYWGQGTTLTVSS VL: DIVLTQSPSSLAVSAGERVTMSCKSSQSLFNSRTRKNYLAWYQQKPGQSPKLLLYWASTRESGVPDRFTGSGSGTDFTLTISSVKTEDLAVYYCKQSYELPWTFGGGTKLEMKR	1.26
3. MM07 (antibody, V domains shown, The VH and VL begin with what look like leader peptides (MDWLW..., MVSSAQ...)) VH: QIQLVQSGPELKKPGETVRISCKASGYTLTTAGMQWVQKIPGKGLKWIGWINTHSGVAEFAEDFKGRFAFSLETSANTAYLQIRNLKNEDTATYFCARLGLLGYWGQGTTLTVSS VL: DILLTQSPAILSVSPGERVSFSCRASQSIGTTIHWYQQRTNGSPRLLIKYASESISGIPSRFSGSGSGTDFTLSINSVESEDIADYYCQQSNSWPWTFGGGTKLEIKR	1.19
4. MM02 (antibody, IgG2b, V domains shown) VH: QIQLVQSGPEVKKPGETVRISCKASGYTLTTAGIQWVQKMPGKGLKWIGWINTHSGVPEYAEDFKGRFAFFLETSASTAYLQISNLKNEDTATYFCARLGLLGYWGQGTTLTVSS VL: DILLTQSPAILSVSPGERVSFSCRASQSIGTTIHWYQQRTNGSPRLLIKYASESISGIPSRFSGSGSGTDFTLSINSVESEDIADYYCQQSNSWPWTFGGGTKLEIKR	1.26
5. MM05 (antibody, IgG1, V domains shown) VH: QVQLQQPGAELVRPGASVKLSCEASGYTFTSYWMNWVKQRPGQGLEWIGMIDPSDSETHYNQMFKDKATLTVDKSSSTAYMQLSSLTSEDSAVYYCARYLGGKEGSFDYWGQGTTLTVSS VL: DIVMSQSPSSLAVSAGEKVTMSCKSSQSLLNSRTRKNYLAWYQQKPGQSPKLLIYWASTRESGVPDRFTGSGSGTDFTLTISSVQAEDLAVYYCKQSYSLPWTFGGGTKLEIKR	1.27
